Reference source for all entries: PubChem BioAssay (NCI)

# Tested on: SF-295 CNS
# test method notes: NCI-60 one-dose screen, 48 h (100 = growth as untreated, 0 = no growth, -100 = all killed)
# condition details: 10 µM unless noted
Compounds without any hit were thinned out: in the full panel of roughly 83,000, 20% have a hit.
# if measured growth < 90%: YES  # else: NO

Examples from the recorded data:
Dear colleague, could you confirm whether growth of COc1cnc2c(c1)C(=O)c1c-2n(CCCCl)c(=O)c2ccncc12 falls below 90%? Thanks.
YES

Dear colleague, could you confirm whether growth of CCCCNc1nnc2n(Cc3ccccc3)c(=O)c3c4c(sc3n12)CCCC4 falls below 90%? Thanks.
YES

Dear colleague, could you confirm whether growth of NS(=O)(=O)c1ccc(NC(=O)/C(=C\c2ccc(Cl)cc2Cl)NC(=O)c2ccccc2)cc1 falls below 90%? Thanks.
NO

Let us examine a further case.
Dear colleague, could you confirm whether growth of Cc1[nH]c(C2CC(c3ccc(C(F)(F)F)c(F)c3)=NN2c2ccccc2)c(C)c1C(=O)NCC(F)(F)F (stereo not given) falls below 90%? Thanks.
YES
